# System: E. coli
# Protocol Notes: Microbial spectrum, E. coli
# Type: cell-based, Escherichia coli
# Reported Conditions: clavulanate 4 μg/mL; Table S4
Measured Attribute: E.coli R + CLAV (MIC90)

O=C(Cc1csc(=O)s1)N[C@@H]1C(=O)N2C(C(=O)O)=C(CSc3nnnn3CCO)CS[C@H]12 | 7.5 µM
CC(=O)OCC1=C(C(=O)O)N2C(=O)[C@@H](NC(=O)CSc3ccncc3)[C@H]2SC1 | > 100 µM
CCCc1nnc(SCC2=C(C(=O)O)N3C(=O)[C@@H](NC(=O)Cc4ccc(C(=N)N)cc4)[C@H]3SC2)s1 | > 100 µM
CCn1nnnc1SCC1=C(C(=O)O)N2C(=O)[C@@H](NC(=O)Cc3ccc(C4=NCCCN4)cc3)[C@H]2SC1 | 60.5 µM
CNCc1ccccc1CC(=O)N[C@@H]1C(=O)N2C(C(=O)O)=C(CSc3nnnn3C)CS[C@H]12 | > 100 µM
NCCSC=CC1=C(C(=O)O)N2C(=O)C(NC(=O)CSc3ccc(Cl)c(Cl)c3)C2SC1 (stereo not shown) | > 100 µM
CC(=O)OCC1=C(C(=O)O)N2C(=O)[C@@H](NC(=O)CSc3nc4ccccc4s3)[C@H]2SC1 | > 100 µM
